tested_on: Drosophila Dmca1D calcium channel (L23RDD2 α1 + α2−δ + β) (Drosophila melanogaster, UniProt Q24270, A1391P/C1440T/D1375E/D1388K/D1403I/D1421E/D1422S/D1433P/DEL1408-1416/DEL1426-1431/E1379S/E1381Q/E1419P/E1434Y/E1435P/E1441G/G1404N/H1387E/H1396E/I1402K/INS1389RKKLARTA/INS1394QEVVGKPALEEAKEEKIELKSITAD/L1420N/M1439T/P1386E/P1400T/Q1392E/Q1417L/R1437P/S1378T/S1395G/T1399P/V1380A/V1436N)
Construct: rabbit cardiac α1C subunit amino acids 790-874 (85 aa insert replacing the fly II-III loop segment)
Sequence (P13806 27-960, stated change not applied): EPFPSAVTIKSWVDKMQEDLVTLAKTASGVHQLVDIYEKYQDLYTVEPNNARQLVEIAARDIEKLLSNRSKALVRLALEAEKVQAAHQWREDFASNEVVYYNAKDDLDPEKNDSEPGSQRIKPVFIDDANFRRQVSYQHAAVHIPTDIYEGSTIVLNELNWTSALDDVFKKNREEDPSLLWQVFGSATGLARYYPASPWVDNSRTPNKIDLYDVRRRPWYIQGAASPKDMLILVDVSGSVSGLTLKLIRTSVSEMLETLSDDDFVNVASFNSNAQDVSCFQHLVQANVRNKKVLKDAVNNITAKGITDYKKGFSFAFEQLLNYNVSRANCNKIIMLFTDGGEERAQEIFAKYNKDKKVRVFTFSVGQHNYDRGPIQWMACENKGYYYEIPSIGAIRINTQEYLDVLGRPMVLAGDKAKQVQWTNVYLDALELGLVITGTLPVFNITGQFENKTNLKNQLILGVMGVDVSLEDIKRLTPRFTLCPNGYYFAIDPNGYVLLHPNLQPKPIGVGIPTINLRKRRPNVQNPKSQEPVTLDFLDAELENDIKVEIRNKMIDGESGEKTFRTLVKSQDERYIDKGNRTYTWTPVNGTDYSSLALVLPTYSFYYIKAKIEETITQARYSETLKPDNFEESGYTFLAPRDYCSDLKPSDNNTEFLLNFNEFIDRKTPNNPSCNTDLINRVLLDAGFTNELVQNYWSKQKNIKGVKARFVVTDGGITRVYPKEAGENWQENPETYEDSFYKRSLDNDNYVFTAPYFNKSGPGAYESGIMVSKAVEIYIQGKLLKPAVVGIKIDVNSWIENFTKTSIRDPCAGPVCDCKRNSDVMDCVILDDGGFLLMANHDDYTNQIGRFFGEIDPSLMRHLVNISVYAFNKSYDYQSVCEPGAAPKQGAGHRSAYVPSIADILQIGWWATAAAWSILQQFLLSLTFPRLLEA
Sequence (P13806 961-1106, stated change not applied): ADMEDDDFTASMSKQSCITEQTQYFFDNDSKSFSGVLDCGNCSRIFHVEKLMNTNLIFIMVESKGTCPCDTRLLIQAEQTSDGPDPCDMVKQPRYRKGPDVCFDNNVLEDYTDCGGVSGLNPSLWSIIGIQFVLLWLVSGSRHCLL
Sequence (Q24270 other isoform, or with tags, fused parts or gaps with the stated changes): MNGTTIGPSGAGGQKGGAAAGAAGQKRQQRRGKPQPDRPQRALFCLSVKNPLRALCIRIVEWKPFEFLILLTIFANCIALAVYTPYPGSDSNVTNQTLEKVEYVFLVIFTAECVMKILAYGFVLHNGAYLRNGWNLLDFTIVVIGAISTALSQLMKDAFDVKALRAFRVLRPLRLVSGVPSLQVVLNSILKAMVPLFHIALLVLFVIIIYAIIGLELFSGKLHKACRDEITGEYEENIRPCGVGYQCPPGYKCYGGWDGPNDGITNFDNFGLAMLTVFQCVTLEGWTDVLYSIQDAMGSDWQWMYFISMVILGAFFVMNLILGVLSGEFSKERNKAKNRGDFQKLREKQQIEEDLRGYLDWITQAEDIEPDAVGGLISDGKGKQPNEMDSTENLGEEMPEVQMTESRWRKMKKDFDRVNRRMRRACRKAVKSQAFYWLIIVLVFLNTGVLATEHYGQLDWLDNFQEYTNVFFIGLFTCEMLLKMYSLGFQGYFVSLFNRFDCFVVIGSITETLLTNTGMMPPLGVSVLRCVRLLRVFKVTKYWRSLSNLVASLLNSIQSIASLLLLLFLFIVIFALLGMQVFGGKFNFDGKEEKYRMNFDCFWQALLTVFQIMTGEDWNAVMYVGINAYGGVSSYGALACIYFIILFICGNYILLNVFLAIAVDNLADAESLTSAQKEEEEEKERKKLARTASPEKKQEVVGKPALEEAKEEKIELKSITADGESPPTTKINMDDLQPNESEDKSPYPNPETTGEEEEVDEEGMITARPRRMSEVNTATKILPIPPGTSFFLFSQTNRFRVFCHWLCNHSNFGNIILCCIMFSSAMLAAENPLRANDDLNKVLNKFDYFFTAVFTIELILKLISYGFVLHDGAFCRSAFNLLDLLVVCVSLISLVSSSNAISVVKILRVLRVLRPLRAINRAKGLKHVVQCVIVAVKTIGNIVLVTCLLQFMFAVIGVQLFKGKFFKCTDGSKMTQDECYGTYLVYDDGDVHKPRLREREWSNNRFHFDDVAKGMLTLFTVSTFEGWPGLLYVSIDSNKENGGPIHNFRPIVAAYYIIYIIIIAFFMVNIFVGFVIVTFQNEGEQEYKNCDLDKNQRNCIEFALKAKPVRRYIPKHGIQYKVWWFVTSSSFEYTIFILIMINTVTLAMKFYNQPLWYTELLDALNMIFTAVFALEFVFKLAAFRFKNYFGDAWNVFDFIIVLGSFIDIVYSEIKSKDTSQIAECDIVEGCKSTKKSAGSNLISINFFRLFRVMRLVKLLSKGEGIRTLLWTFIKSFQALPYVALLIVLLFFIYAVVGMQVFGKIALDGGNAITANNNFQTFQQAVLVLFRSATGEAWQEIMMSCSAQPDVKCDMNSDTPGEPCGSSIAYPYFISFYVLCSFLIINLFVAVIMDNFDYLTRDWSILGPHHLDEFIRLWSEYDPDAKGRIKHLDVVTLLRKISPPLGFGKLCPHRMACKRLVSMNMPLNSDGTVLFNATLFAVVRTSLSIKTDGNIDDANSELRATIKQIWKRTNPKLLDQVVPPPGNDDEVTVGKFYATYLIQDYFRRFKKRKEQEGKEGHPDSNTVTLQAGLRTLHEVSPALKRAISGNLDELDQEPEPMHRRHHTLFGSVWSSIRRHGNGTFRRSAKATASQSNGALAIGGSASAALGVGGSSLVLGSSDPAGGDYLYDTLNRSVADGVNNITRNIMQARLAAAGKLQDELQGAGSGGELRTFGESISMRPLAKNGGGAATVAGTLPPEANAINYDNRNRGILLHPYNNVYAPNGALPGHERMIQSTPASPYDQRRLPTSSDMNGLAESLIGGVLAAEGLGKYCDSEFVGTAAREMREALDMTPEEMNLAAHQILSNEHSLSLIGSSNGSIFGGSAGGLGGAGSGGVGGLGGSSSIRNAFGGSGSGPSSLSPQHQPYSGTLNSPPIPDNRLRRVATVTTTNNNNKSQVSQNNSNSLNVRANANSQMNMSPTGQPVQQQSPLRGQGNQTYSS
assay_remarks: Calcium channel currents in Xenopus oocytes expressing Drosophila L23RDD2 α1 with α2-δ and β subunits
pEC50: −log10 of the molar value.
readout_name: pEC50

query_smiles	readout_name	meas_value
COC(=O)C1=C(C)NC(C)=C(C(=O)OC)C1c1ccccc1[N+](=O)[O-]	pEC50	~5.52

Recorded values, source patent US6436627B1.
